The entries below are paired with their reported Tmax.
- ASSAY_SUMMARY: Multi-component pharmacokinetic study of GQD, GQD-GC and single herb extracts in rats (plasma, LC/MS/MS)
- Assay type: in vivo, Sprague-Dawley rats
- PARTICULARS: male, Sprague-Dawley, rat; GQD group: rats, oral GQD extract 18.9 g/kg, plasma; read-out: Tmax
Express the result in h but write the number alone.

Recorded results for 5 molecules are shown here.
>  <MOLECULE>
O=C(O)[C@H]1O[C@@H](Oc2cc(O)c3c(=O)cc(-c4ccccc4)oc3c2O)[C@H](O)[C@@H](O)[C@@H]1O [Compound 14, norwogonin 7-O-glucuronide]

>  <Tmax [h]>
7.05

$$$$
>  <MOLECULE>
COc1ccc(-c2coc3c(C4OC(COC5OCC(O)(CO)C5O)C(O)C(O)C4O)c(O)ccc3c2=O)cc1 (stereo not drawn) [Compound 5]

>  <Tmax [h]>
0.76

$$$$
>  <MOLECULE>
O=c1c(-c2ccc(O)cc2)coc2c([C@@H]3O[C@H](CO)[C@@H](O)[C@H](O)[C@H]3O)c(O)ccc12 [Compound 7, puerarin]

>  <Tmax [h]>
1.2

$$$$
>  <MOLECULE>
COc1c(CC=C(C)C)c(O)cc2oc(=O)c(-c3ccc(O)cc3O)cc12 [Compound 30, glycycoumarin]

>  <Tmax [h]>
2

$$$$
>  <MOLECULE>
COc1cc2c(cc1OC)-c1cc3ccc4c(c3c[n+]1CC2)OCO4 [Compound 22, epiberberine]

>  <Tmax [h]>
0.58

$$$$

The reported value for O=C(O)[C@H]1O[C@@H](Oc2cc3oc(-c4ccccc4)cc(=O)c3c(O)c2O)[C@H](O)[C@@H](O)[C@@H]1O [Compound 17, baicalin] in terms of Tmax is 7.29

* * *

- ASSAY_SUMMARY: Multi-component pharmacokinetic study of GQD, GQD-GC and single herb extracts in rats (plasma, LC/MS/MS)
- Type: in vivo, Sprague-Dawley rats
- PARTICULARS: male, Sprague-Dawley, rat; GC (Gan-Cao) group: rats, oral extract 2.36 g/kg, plasma; read-out: T1/2 (converted)
PROPERTY: half-life (h)
State just the number; it will be interpreted in h.

Some compounds with known half-life results, for comparison:
>  <MOLECULAR_STRING>
COc1ccc(-c2coc3cc(O)ccc3c2=O)cc1

>  <PROPERTY>
half-life

>  <RECORDED_NUMBER>
3.22

$$$$
>  <MOLECULAR_STRING>
CC1(C)[C@@H](O)CC[C@]2(C)[C@H]3C(=O)C=C4[C@@H]5C[C@@](C)(C(=O)O)CC[C@]5(C)CC[C@@]4(C)[C@]3(C)CC[C@@H]12

>  <PROPERTY>
half-life

>  <RECORDED_NUMBER>
6.87

$$$$
>  <MOLECULAR_STRING>
O=C(/C=C/c1ccc(O)cc1)c1ccc(O)cc1O

>  <PROPERTY>
half-life

>  <RECORDED_NUMBER>
0.28

$$$$

Pending compound:
Reported half-life ( "CC1(C)[C@@H](O[C@H]2O[C@H](C(=O)O)[C@@H](O)[C@H](O)[C@H]2O[C@@H]2O[C@H](C(=O)O)[C@@H](O)[C@H](O)[C@H]2O)CC[C@]2(C)[C@H]3C(=O)C=C4[C@@H]5C[C@@](C)(C(=O)O)CC[C@]5(C)CC[C@@]4(C)[C@]3(C)CC[C@@H]12" ) = 4.08
